B1: POU domain, class 5, transcription factor 1, residues 134 to 212; numbered along this chain, Q01860 (parent)
chain: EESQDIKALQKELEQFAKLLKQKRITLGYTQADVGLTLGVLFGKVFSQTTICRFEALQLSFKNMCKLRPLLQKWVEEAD

Variants of: B1
run.description: abundance fitness (aPCA) (normalised: wild type 0, dead -1); higher = more abundant; growth selection in yeast, the domain comes from the species named
run.conditions: Homo sapiens
Readings of abundance fitness for the listed variants

mutation.annotation	abundance fitness
K21P	-0.353
V75M	-0.293
K73G	-0.386
L19T	-0.49
Q72D	-0.379
L20E	-0.313
Q31K	-0.557
T49L	-0.418
I6D	0.122
M64Q	-0.802
E77D	-0.107
K73P	-0.506
A56E	0.067
I6V	-0.749
D79T	-0.122
E14S	-0.358
L38S	-0.37
I51K	-0.067
Q10S	-0.111
N63S	0.299
F42E	-0.493
P69R	-0.613

Where do these numbers come from? They come from the Human Domainome abundance scans (Beltran et al. 2025).
